tgt: human 5-HT6 receptor (Homo sapiens, UniProt P50406)
Construct: host or cells: CHO-K1 cells, stably transfected; membranes prepared in house
Sequence (P50406 whole entry): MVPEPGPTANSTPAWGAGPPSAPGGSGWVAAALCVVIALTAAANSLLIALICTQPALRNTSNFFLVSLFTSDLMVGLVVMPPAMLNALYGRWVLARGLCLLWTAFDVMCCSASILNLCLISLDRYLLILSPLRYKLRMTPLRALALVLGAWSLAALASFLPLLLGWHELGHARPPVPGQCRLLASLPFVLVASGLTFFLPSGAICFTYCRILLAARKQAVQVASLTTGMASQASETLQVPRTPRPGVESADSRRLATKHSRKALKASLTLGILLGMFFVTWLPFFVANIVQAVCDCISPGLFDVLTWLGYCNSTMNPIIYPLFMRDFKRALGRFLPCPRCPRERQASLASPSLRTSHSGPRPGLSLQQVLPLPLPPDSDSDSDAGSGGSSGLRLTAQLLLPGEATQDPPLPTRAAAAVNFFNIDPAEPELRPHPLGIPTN
assayInfo: Human 5-HT6 Receptor Binding Assay ([3H]LSD displacement, scintillation beads)
protocolConditions: membranes of CHO-K1 cells with recombinant human 5-HT6, 4 nM [3H]LSD; Table 1, class symbols; read-out: h5-HT6 (Ki)
pKi: −log10 of the molar value.
Give pKi for every item shown.

Working through the 2 compounds below one at a time, give pKi for each.
1. O=S(=O)(Nc1ccc2c(c1)C1CCNCC1O2)c1ccc(Cl)c(Cl)c1 (centres unmarked) [Example 827]
2. [O-][S+](c1ccc2c(c1)OC1CNCCC21)c1cccnc1Cl (centres unmarked) [Example 389]

Completion:
> 6.30
< 6.00

Go through the list and state pKi for each entry.
1. O=C(COc1cccc(S(=O)(=O)c2ccc3c(c2)OC2CNCCC32)c1)N1CCCC1 (centres unmarked) [Example 564]
2. Cc1ccc(S(=O)(=O)Oc2ccc3c(c2)C2CCNCC2O3)cc1F (centres unmarked) [Example 709]
3. COc1cccc(S(=O)(=O)c2ccc3c(c2)OC2CNCCC32)c1F (centres unmarked) [Example 404]
4. O=S(=O)(c1cccc(F)c1)c1ccc2c3c(oc2c1)C(CC(F)(F)F)NCC3 (centres unmarked) [Example 507]
5. O=S(=O)(c1ccc2c(c1)OC1CNCCC21)c1ccccc1F (centres unmarked) [Example 146]
6. O=S(=O)(c1ccc2oc3c(c2c1)CCNC3)C1CCCCC1 [Example 280]
7. CC1OCCC12NCCc1c2oc2cc(S(=O)(=O)c3cccc(F)c3)ccc12 (single isomer, unassigned) [Example 61]

Completion:
< 6.00
6.00 to 6.30
> 6.30
> 6.30
> 6.30
< 6.00
> 6.30

Dear reader, for each entry below, please note its pKi.
1. CC(=O)N1CCc2c(oc3cc(S(=O)(=O)c4cccc(Cl)c4)ccc23)C1 [Example 615]
2. Cc1ncccc1S(=O)(=O)c1ccc2c3c(oc2c1)C(C)(C)NCC3 [Example 375]
3. O=S(=O)(Oc1ccc2c(c1)OC1CNCCC21)c1cccc2nsnc12 (centres unmarked) [Example 669]
4. O=S(=O)(c1cc(F)cc(Cl)c1)c1ccc2c(c1)OC1CNCCC21 (centres unmarked) [Example 147]
5. CC(C)Oc1cccc([S+]([O-])c2ccc3c4c(oc3c2)CNCC4)c1 (centres unmarked) [Example 216]
6. Cc1c(Cl)cccc1S(=O)(=O)Oc1ccc2c(c1)C1(C)CCNCC1O2 (centres unmarked) [Example 767]
7. O=S(=O)(c1ccc2c(c1)OC1CNCCC21)c1cccc2nsnc12 (centres unmarked) [Example 67]

Completion:
1: > 6.30; 2: > 6.30; 3: > 6.30; 4: > 6.30; 5: > 6.30; 6: < 6.00; 7: > 6.30

###

Give measured Ki for each item. Keep answers brief.
tgt: human 5-HT6 receptor (Homo sapiens)
Construct: host or cells: CHO-K1 cells, stably transfected; membranes prepared in house
assayInfo: Human 5-HT6 Receptor Binding Assay ([3H]LSD displacement, scintillation beads)
protocolConditions: membranes of CHO-K1 cells with recombinant human 5-HT6, 4 nM [3H]LSD; Table 1, class symbols; read-out: h5-HT6 (Ki)
Procedure: Human 5-HT6 Receptor Binding Assay Membranes were prepared from CHO—K1 cells stably transfected with the human 5-HT6 receptor (Euroscreen; ES-316-C). […] The membranes were centrifuged at 40,000×g for 30 min at 4° C. and the pellets were resuspended in membrane buffer containing 250 mM sucrose, and protein concentration was determined using the Coomassie Plus kit (Pierce Biotechnology, Rockford, Ill.). […]

Here's what some known entries look like.
> print(dat)
                                   compound  readoutvalue
1  O=S(=O)(c1cccc(OCC2CCOCC2)c1)c1ccc2c(c1)OC1CNCCC21 (single isomer, unassigned) [Example 548]      < 500 nM
2  CC12CCNCC1Oc1ccc(S(=O)(=O)c3cccc(F)c3)cc12 (stereo not drawn)      < 500 nM

// input: 4 compounds below; output: Ki for each
1. N#Cc1ccc(S(=O)(=O)c2ccc3c(c2)OC2CNCCC32)cc1 (stereo not drawn)
2. O=S(=O)(c1cccc(Br)c1)c1ccc2oc3c(c2c1)CCNC3
3. CN1CCC2(C)c3cc(OS(=O)(=O)Cc4ccccc4)ccc3OC2C1 (stereo not drawn)
4. O=S(=O)(c1ccc2c(c1)OC1CNCCC21)c1cccnc1OCC(F)(F)F (stereo not drawn) [Example 394]

Completion:
["> 1000 nM", "< 500 nM", "> 1000 nM", "< 500 nM"]

Give me Ki for each of these compounds, listed below.
1. O=S1(=O)CCC2(CC1)NCCc1c2oc2cc(S(=O)(=O)c3cccc(F)c3)ccc12
2. [O-][S+](c1ccc2c3c(oc2c1)CNCC3)c1cc(Cl)ccc1Cl (stereo not drawn)
3. O=S(=O)(CC1CCCCC1)Oc1ccc2c(c1)OC1CNCCC21 (stereo not drawn)
4. O=S(=O)(c1ccc2c(c1)C1CCNCC1O2)N1CCC2(CC1)OCc1ccccc12 (stereo not drawn)

Completion:
< 500 nM
< 500 nM
> 1000 nM
> 1000 nM

Working through the 3 compounds below one at a time, give Ki for each.
1. O=S(=O)(c1ccccc1)c1ccc2c(c1)C1CCNCC1O2 (stereo not drawn) [Example 181]
2. O=S(=O)(c1cccc(Cl)c1)c1ccc2oc3c(c2c1)CCNC3
3. O=S(=O)(c1cccc(OCC2CCCO2)c1)c1ccc2c(c1)OC1CNCCC21 (stereo not drawn)

Completion:
1. > 1000 nM
2. < 500 nM
3. < 500 nM
